- System tested: CBX7 chromodomain (CBX7 ChD), N-terminal His6-tagged recombinant protein (UniProt O95931)
- Sequence (O95931 8-62 limits assumed): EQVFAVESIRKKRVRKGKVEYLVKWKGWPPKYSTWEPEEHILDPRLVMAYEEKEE
- Method description: competitive fluorescence polarization, displacement of FITC-labelled probe
pIC50: −log10 of the molar value. Square brackets hold non-standard residues; d marks the D form. Ends that are not written are not given here. Tyr(3-Cl) = N[C@@H](Cc1ccc(O)c(Cl)c1)C(=O)O
Readout kind: pIC50

Binder: [Tyr(3-Cl)]PIK(trimethyl)S-NH2 (also: N-terminal acylation, acyl group not given here) [KED98 (PP)]
Value observed: 4.08
